# Tested on: HCT-116
# method notes: Cell cycle arrest in human HCT116 cells assessed as accumulation at G1 phase at IC50 after 24 hrs irradiated with tungsten-halogen white light for 2 hrs followed by incubation in drug free medium for 24 hrs by flow cytometry
# Format: functional
Overview of reported Activity across a group of compounds:

compound | target or system | Activity
Oc1cccc(-c2c3nc(c(-c4cccc(O)c4)c4ccc([nH]4)c(-c4cccc(O)c4)c4nc(c(-c5cccc(O)c5)c5ccc2[nH]5)CC4)C=C3)c1 [TEMOPORFIN] | HCT-116 | 51.53%
Oc1cccc(-c2c3nc(cc4ccc([nH]4)c(-c4ccccc4)c4nc(cc5ccc2[nH]5)C=C4)C=C3)c1 | HCT-116 | 49.03%
COc1cccc(-c2c3nc(cc4ccc([nH]4)c(-c4ccccc4)c4nc(cc5ccc2[nH]5)C=C4)C=C3)c1 | HCT-116 | 52.4%
C1=Cc2nc1cc1ccc([nH]1)c(-c1ccccc1)c1nc(cc3ccc([nH]3)c2-c2ccccc2)C=C1 | HCT-116 | 52.83%
